Assay: in vitro
Settings: human
The following molecules are listed with their measured CC50 values.
assay.endpoint: CC50

1. COc1cccc2[nH]c(C(=O)N3C[C@@H]4CCC[C@@H]4[C@H]3C(=O)N[C@@H](C[C@@H]3CCNC3=O)C(=O)COP(=O)(O)O)cc12 | > 100 µM
2. COc1ccc2[nH]c(C(=O)N3C[C@@H]4CCC[C@@H]4[C@H]3C(=O)N[C@@H](C[C@@H]3CCNC3=O)C(=O)CO)cc2c1OC | > 50 µM
3. COc1cccc2[nH]c(C(=O)N3C[C@]4(C[C@H]3C(=O)NC(C[C@@H]3CCCNC3=O)C(=O)C(=O)NC3CC3)CC4(F)F)cc12 (stereo partly shown) | > 100 µM
4. CC(C)C(=O)OCC(=O)[C@H](C[C@@H]1CCNC1=O)NC(=O)[C@@H]1[C@H]2CCC[C@H]2CN1C(=O)c1cc2c(Cl)cc(Cl)cc2[nH]1 | > 10 µM

----------
# IC50 per record follows
Target: human cathepsin L (Homo sapiens)
Construct: purchased R&D Systems
Assay: cathepsin L assay
Type: biochemical
Conditions: 10 pM human cathepsin L, Z-FR-AMC 2 μM, class symbols
assay.endpoint: IC50

1) O=C1NCC[C@H]1C[C@H](NC(=O)[C@@H]1[C@H]2CCC[C@H]2CN1C(=O)c1cc2c(Cl)cc(C(F)(F)F)cc2[nH]1)C(=O)CO | ≥ 10 µM
2) O=C(NCc1ccccc1)C(=O)[C@H](C[C@@H]1CCNC1=O)NC(=O)[C@@H]1C[C@@]2(CN1C(=O)c1cc3ccccc3[nH]1)CC2(F)F | 0.1 to 1 µM
3) CC1(C)[C@@H]2[C@@H](C(=O)NC(C[C@@H]3CCNC3=O)C(=O)C(=O)NCc3ccccc3)N(C(=O)c3cc4ccccc4[nH]3)C[C@@H]21 (stereo partly shown) | 0.1 to 1 µM
4) COc1cccc2[nH]c(C(=O)N3C[C@]4(C[C@H]3C(=O)N[C@@H](C[C@@H]3CCCNC3=O)C(=O)CO)CC4(F)F)cc12 | ≥ 10 µM

----------
Assay: in vitro
Conditions: African green monkey, VeroE6 + CP (CC50), Vero E6-eGFP cells with CP-100356, absence of virus, MTS; numeric bounds
The compounds listed here are annotated with their CC50.
assay.endpoint: CC50

1. O=C1NCC[C@H]1C[C@H](NC(=O)[C@@H]1[C@@H]2[C@H](CN1C(=O)c1cc3c(Cl)cc(Cl)cc3[nH]1)[C@@H]1C=C[C@H]2C1)C(=O)CO | > 50 µM
2. O=C(NCc1ccccc1)C(=O)[C@H](C[C@@H]1CCNC1=O)NC(=O)[C@@H]1[C@H]2CCC[C@H]2CN1C(=O)c1nc2ccccc2[nH]1 | > 100 µM
3. COc1cccc2[nH]c(C(=O)N3C[C@@H]4CCC[C@@H]4[C@H]3C(=O)N[C@@H](C[C@@H]3CCNC3=O)C(=O)C(=O)NCC(F)(F)F)cc12 | > 50 µM
4. COc1cccc2sc(C(=O)N3C[C@@H]4CCC[C@@H]4[C@H]3C(=O)N[C@@H](C[C@@H]3CCNC3=O)C(=O)CO)cc12 | > 100 µM
5. COc1cccc2[nH]c(C(=O)N3C[C@@H]4CCC[C@@H]4[C@H]3C(=O)N[C@@H](C[C@@H]3CCNC3=O)C(=O)C(=O)N[C@H]3CCOC3)cc12 | > 100 µM
6. COc1cccc2[nH]c(C(=O)N3CCc4ccccc4[C@H]3C(=O)N[C@@H](C[C@@H]3CCNC3=O)C(=O)C(=O)NC3CC3)cc12 | > 100 µM
7. O=C1NCC[C@H]1C[C@H](NC(=O)[C@@H]1[C@H]2CCC[C@H]2CN1C(=O)c1cc2c(Cl)ccc(Cl)c2[nH]1)C(=O)CO | > 50 µM

----------
Biological target: human cathepsin L (Homo sapiens)
Construct: purchased R&D Systems
Test: cathepsin L assay
Format: biochemical
Settings: 10 pM human cathepsin L, Z-FR-AMC 2 μM, class symbols
assay.endpoint: IC50

1. O=C(NCc1ccccc1)C(=O)[C@H](Cc1ccncc1)NC(=O)[C@@H]1CC2(CC2)CN1C(=O)c1cc2ccccc2[nH]1 | 1 to 10 µM
2. COc1cccc2[nH]c(C(=O)N3C[C@@H]4CCC[C@@H]4[C@H]3C(=O)N[C@@H](C[C@@H]3CCCNC3=O)C(=O)CO)cc12 | ≥ 10 µM
3. COc1cccc2[nH]c(C(=O)N3Cc4ccccc4[C@@H]3C(=O)N[C@@H](C[C@@H]3CCCNC3=O)C(=O)CO)cc12 | ≥ 10 µM
4. CC(C)(C)C(=O)OCC(=O)[C@H](C[C@@H]1CCNC1=O)NC(=O)[C@@H]1[C@H]2CCC[C@H]2CN1C(=O)c1cc2c(Cl)cc(Cl)cc2[nH]1 | ≥ 10 µM
5. O=C(NCc1ccccc1)C(=O)C(C[C@@H]1CCNC1=O)NC(=O)[C@@H]1C[C@@H](C2CC2)CN1C(=O)c1cc2ccccc2[nH]1 (stereo partly drawn) | 0.1 to 1 µM
6. CC[C@@H]1C[C@@H](C(=O)N[C@@H](C[C@@H]2CCNC2=O)C(=O)C(=O)NCc2ccccc2)N(C(=O)c2cc3ccccc3[nH]2)C1 | < 0.1 µM
7. COc1cc(F)c(F)c2[nH]c(C(=O)N3C[C@@H]4CCC[C@@H]4[C@H]3C(=O)N[C@@H](C[C@@H]3CCNC3=O)C(=O)CO)cc12 | ≥ 10 µM
8. O=C1NCC[C@H]1C[C@H](NC(=O)[C@@H]1[C@H]2CCC[C@H]2CN1C(=O)c1cc2c(Cl)c(F)cc(Cl)c2[nH]1)C(=O)CO | ≥ 10 µM
9. CC1(C)CCN(C(=O)c2cc3ccccc3[nH]2)[C@H](C(=O)NC(C[C@@H]2CCNC2=O)C(=O)C(=O)NCc2ccccc2)C1 (stereo partly drawn) | < 0.1 µM
10. N#C[C@H](C[C@@H]1CCNC1=O)NC(=O)[C@@H]1[C@H]2CCC[C@H]2CN1C(=O)c1cc2c(Cl)cc(F)cc2[nH]1 | ≥ 10 µM
11. COc1cccc2[nH]c(C(=O)N3C[C@@H]4CCC[C@@H]4[C@H]3C(=O)N[C@@H](C[C@H]3CC(C)(C)NC3=O)C(=O)CO)cc12 | ≥ 10 µM
12. C[C@@H]1C[C@@H](C(=O)N[C@@H](C[C@@H]2CCNC2=O)C(=O)C(=O)NCc2ccccc2)N(C(=O)c2cc3ccccc3[nH]2)C1 | 0.1 to 1 µM

----------
Biological target: human cathepsin L (Homo sapiens, UniProt P07711)
Construct: purchased R&D Systems
Assay: cathepsin L assay
Format: biochemical
Conditions: 10 pM human cathepsin L, Z-FR-AMC 2 μM, class symbols
assay.endpoint: IC50

1) COc1cccc2[nH]c(C(=O)N3C[C@@H]4CCC[C@@H]4[C@H]3C(=O)NC(C[C@@H]3CCNC3=O)C(=O)C(=O)NCc3ccccc3)nc12 (stereo partly drawn) | ≥ 10 µM
2) O=C(NCc1ccccc1)C(=O)[C@H](C[C@@H]1CCNC1=O)NC(=O)[C@@H]1C[C@@H](C2CCCCC2)CN1C(=O)c1cc2ccccc2[nH]1 | ≥ 10 µM
3) COc1cccc2[nH]c(C(=O)N3C[C@@H]4CCC[C@@H]4[C@H]3C(=O)NC(CN3CCCC3=O)C(=O)C(=O)NC3CC3)cc12 (single isomer, unassigned) [Compound 113A] | ≥ 10 µM
4) O=C(NCc1ccccc1)C(=O)C(C[C@@H]1CCNC1=O)NC(=O)[C@@H]1C[C@@H](c2ccccc2)CN1C(=O)c1cc2ccccc2[nH]1 (stereo partly drawn) | < 0.1 µM
5) CC1(C)[C@@H]2[C@@H](C(=O)N[C@@H](C[C@@H]3CCNC3=O)C(=O)CO)N(C(=O)c3cc4c(Cl)cc(Cl)cc4[nH]3)C[C@@H]21 | ≥ 10 µM
6) COc1cccc2[nH]c(C(=O)N3C[C@H]4[C@@H]([C@H]3C(=O)N[C@@H](C[C@@H]3CCNC3=O)C(=O)C(N)=O)C4(C)C)cc12 | 0.1 to 1 µM

----------
Let's look at some molecules and their measured IC50.
Molecular target: 3CLpro (Severe acute respiratory syndrome coronavirus 2)
Test: SARS-CoV-2 3CLpro protease assay (duplex, SAMDI-MS)
Type: biochemical
Set-up: For the duplex assay, 3CLpro and HRV3C was added
Conditions: 3CLpro, 30 mins preincubation, class symbols; read-out: SARS-Cov-2 IC50
assay.endpoint: IC50

1. COc1cccc2[nH]c(C(=O)N3C[C@@H]4CCC[C@@H]4[C@H]3C(=O)N[C@@H](C[C@@H]3CCNC3=O)C(=O)C(=O)N[C@@H]3CCOC3)cc12 | 0.02 to 0.2 µM
2. COc1cccc2[nH]c(C(=O)N3C[C@@H]4CCC[C@@H]4[C@H]3C(=O)N[C@@H](C[C@@H]3CCNC3=O)C(=O)C(=O)NC3CCOCC3)cc12 | 0.2 to 2 µM
3. COCC(=O)[C@H](C[C@@H]1CCNC1=O)NC(=O)[C@@H]1[C@H]2CCC[C@H]2CN1C(=O)c1cc2c(OC)cccc2[nH]1 | 0.2 to 2 µM
4. COc1cccc2[nH]c(C(=O)N3C[C@@H]4CCC[C@@H]4[C@H]3C(=O)N[C@@H](C[C@@H]3CCNC3=O)C(=O)c3ncc[nH]3)cc12 | 2 to 20 µM

These measurements were taken from patent US11952365B2.
